assay: Hill coefficient as determined.
Metric: Hill coefficient

INSERT INTO measurements (compound, data_value) VALUES
  ('COc1ccc(OC)c(CC(C)N)c1 (stereo unspecified)', 0.92),
  ('COc1cc(CC(C)N)c(OC)cc1C (stereo unspecified) [DOM]', 0.89),
  ('COc1cc(CC(C)N)c(OC)cc1Br (stereo unspecified) [BROLAMFETAMINE]', 1.09),
  ('COc1cc2c(cc1CC(C)N)OCC2 (stereo unspecified)', 0.91),
  ('COc1cc(Br)c2c(c1CC(C)N)CCO2 (stereo unspecified)', 1.06),
  ('COc1ccc2c(c1CC(C)N)CCO2 (stereo unspecified)', 0.93);

The values you see were collected from ChEMBL document CHEMBL1125731.
